All figures here come from patent US9511061B2.

target: 5-HT2A (agonist) (Homo sapiens (Human), UniProt P28223); test: Binding test on cloned human serotoninergic receptor; conditions: 5-HT2A (agonist) site
Sequence (P28223 whole entry): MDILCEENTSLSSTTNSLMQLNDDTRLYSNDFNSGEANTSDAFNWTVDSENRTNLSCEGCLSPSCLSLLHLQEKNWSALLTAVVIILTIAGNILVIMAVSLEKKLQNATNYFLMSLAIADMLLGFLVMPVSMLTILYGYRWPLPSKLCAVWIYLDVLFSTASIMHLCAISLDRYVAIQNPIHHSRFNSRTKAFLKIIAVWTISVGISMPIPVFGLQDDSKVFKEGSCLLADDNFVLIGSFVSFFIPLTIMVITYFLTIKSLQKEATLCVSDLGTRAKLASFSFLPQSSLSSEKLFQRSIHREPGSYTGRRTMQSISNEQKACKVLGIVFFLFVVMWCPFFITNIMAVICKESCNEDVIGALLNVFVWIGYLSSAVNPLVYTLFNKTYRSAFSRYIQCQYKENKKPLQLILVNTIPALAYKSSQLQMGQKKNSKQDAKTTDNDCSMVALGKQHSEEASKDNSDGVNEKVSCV
endpoint-name: IC50 (µM)
Reply with just the number (in µM).

Data request: Please give the measured IC50 for this compound: c1ccc2cc(COC3CCNCC3)ccc2c1 [Compound A, 4-[(2-naphthalenyl)-methoxy]-piperidine]
Data returned: 1

---

target: 5-HT2B (agonist) (Homo sapiens (Human)); experiment: Binding test on cloned human serotoninergic receptor; settings: 5-HT2B (agonist) site
Sequence (P41595 whole entry): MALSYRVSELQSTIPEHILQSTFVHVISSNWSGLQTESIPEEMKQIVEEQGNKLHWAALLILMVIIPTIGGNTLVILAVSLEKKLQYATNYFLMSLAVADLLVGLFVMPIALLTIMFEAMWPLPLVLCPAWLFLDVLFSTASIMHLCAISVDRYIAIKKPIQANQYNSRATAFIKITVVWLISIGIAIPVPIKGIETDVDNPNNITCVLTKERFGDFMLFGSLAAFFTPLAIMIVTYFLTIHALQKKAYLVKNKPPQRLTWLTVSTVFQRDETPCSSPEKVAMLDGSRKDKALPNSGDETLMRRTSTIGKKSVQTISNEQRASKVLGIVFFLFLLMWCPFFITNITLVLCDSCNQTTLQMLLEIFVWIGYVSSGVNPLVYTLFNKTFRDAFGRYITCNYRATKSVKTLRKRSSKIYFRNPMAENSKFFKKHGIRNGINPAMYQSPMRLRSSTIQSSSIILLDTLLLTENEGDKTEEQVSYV
endpoint-name: IC50 (µM)
Reply with just the number (in µM).

Data request: Please give the measured IC50 for this molecule: c1ccc2cc(COC3CCNCC3)ccc2c1 [Compound A, 4-[(2-naphthalenyl)-methoxy]-piperidine]
Data returned: 1

---

Biological target: 5-HT2B (agonist) (Homo sapiens (Human))
Assay: Binding test on cloned human serotoninergic receptor
Conditions: 5-HT2B (agonist) site; Cheng Prusoff
Experimental: The affinity of the compound A was evaluated in vitro on 8 cloned human serotoninergic receptors by measuring the specific binding of the ligands to the corresponding receptors according to methods adapted from Mulheron (1994), Bryant (1996), Choi (1994), Hope (1996), Mialet (2000), Rees (1994) and Shen (1993).
endpoint-name: Ki (nM)
Reply with just the number (in nM).

Data request: Please give the measured Ki for this compound: c1ccc2cc(COC3CCNCC3)ccc2c1 [Compound A, 4-[(2-naphthalenyl)-methoxy]-piperidine]
Data returned: 980

---

target: UniProt Q13639
Sequence (Q13639 other isoform, or with tags, fused parts or gaps): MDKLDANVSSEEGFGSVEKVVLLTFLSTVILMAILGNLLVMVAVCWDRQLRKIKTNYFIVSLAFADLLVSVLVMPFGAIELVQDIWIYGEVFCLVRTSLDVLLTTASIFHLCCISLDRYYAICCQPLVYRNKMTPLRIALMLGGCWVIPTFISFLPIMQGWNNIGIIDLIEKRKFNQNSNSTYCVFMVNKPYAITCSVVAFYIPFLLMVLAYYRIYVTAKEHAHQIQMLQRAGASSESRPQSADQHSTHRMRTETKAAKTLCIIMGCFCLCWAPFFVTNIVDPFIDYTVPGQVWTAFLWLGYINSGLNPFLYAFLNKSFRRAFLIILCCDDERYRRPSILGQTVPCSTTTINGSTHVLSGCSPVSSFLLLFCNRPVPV
endpoint-name: Ki (µM)
Reply with just the number (in µM).

Data request: Form entry - test system: UniProt Q13639; read-out: Ki; compound: c1ccc2cc(COC3CCNCC3)ccc2c1 [Compound A, 4-[(2-naphthalenyl)-methoxy]-piperidine]
Data returned: 1.6

---

molecular target: 5-HT2C (agonist) (Homo sapiens (Human), UniProt P28335); experiment: Binding test on cloned human serotoninergic receptor; details: 5-HT2C (agonist) site; Cheng Prusoff
endpoint-name: Ki (nM)
Reply with just the number (in nM).

Data request: Please give the measured Ki for this compound: c1ccc2cc(COC3CCNCC3)ccc2c1 [Compound A, 4-[(2-naphthalenyl)-methoxy]-piperidine]
Data returned: 200

---

target: 5-HT3 (Homo sapiens (Human))
Sequence (P46098 24-478): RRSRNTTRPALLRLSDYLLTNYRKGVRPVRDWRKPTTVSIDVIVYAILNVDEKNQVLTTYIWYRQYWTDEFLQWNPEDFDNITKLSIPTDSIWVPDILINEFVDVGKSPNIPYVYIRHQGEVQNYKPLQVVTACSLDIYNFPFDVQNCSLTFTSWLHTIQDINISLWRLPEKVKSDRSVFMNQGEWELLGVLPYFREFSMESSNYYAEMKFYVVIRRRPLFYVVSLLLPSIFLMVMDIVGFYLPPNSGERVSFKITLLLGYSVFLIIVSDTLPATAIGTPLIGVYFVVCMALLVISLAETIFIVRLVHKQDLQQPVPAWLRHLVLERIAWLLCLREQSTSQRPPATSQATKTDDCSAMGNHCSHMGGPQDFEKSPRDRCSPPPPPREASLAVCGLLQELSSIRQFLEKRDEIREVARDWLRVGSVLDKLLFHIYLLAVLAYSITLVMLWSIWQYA
endpoint-name: IC50 (nM)
Reply with just the number (in nM).

Data request: Please give the measured IC50 for this compound: c1ccc2cc(COC3CCNCC3)ccc2c1 [Compound A, 4-[(2-naphthalenyl)-methoxy]-piperidine]
Data returned: 1400

---

target: adrenergic receptors α1; assay: Affinity for adrenergic receptors
endpoint-name: pIC50
In textbook form, pIC50 equals minus log to base ten of the concentration in mol/L.

Data request: Please give the measured pIC50 for this compound: c1ccc2cc(COC3CCNCC3)ccc2c1 [Compound A, 4-[(2-naphthalenyl)-methoxy]-piperidine]
Data returned: 4.40

---

target: adrenergic receptors α2; assay: Affinity for adrenergic receptors
endpoint-name: IC50 (µM)
Reply with just the number (in µM).

Data request: Please give the measured IC50 for this compound: c1ccc2cc(COC3CCNCC3)ccc2c1 [Compound A, 4-[(2-naphthalenyl)-methoxy]-piperidine]
Data returned: 70

---

target: human 5-HT2C receptor (Homo sapiens (Human)); experiment: Cellular functional test ([35S]GTPγS binding) on cloned human 5-HT2C receptor in CHO cells; conditions: agonistic activity, [35S]GTPγS, CHO cells; read-out: IC50 (partial agonist for the 5-HT2C receptor)
Sequence (P28335 33-458): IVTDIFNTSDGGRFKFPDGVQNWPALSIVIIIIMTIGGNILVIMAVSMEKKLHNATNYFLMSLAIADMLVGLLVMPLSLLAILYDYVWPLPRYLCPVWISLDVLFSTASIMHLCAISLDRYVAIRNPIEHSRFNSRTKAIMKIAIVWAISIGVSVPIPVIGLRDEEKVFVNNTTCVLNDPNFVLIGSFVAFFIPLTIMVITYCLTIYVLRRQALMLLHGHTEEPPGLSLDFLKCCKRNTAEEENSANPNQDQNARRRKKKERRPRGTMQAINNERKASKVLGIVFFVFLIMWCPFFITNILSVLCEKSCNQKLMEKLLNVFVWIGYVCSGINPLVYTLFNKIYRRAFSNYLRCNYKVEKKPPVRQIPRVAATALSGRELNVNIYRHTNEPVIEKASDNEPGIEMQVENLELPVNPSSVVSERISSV
endpoint-name: pIC50
In textbook form, pIC50 equals minus log to base ten of the concentration in mol/L.

Data request: Please give the measured pIC50 for this compound: c1ccc2cc(COC3CCNCC3)ccc2c1 [Compound A, 4-[(2-naphthalenyl)-methoxy]-piperidine]
Data returned: 5.82
